# procedureSummary: Cytotoxicity against human SupT1 cells assessed as decrease in cell viability after 48 hrs by CCK-8 assay
# Type: cell-based, SUP-T1
Each record here notes measured CC50 at 48 h.
measuredQuantity: CC50 at 48 h

INSERT INTO assay_data (molecule, measuredquantity, experimentalvalue) VALUES
  ('COC(=O)c1cc(O)cc(OC)c1C(=O)c1c(O)c(Cl)c(C)c(Cl)c1O [DIHYDROGEODIN]', 'CC50 at 48 h', '> 100 µM'),
  ('COc1cc(/C=C2\OC(=O)C(c3ccc(O)cc3)=C2O)cc(OC)c1O', 'CC50 at 48 h', '> 100 µM'),
  ('COC(=O)[C@]1(Cc2ccc(O)cc2)OC(=O)C(OC)=C1c1ccc(O)cc1', 'CC50 at 48 h', '> 100 µM'),
  ('CC(C)=CCC/C(=C/CC/C(C)=C/CC/C(C)=C/C[C@]1(O)C(=O)c2c(O)cc(C)c3c(O)c(C)c(O)c(c23)C1=O)CO', 'CC50 at 48 h', '> 100 µM'),
  ('Cc1c(O)c(O)c(O)c(C=O)c1-c1cc2c(C=O)c(C)c(O)c(O)c2o1', 'CC50 at 48 h', '> 100 µM'),
  ('O=C1O/C(=C\c2ccc(O)cc2)C(O)=C1c1ccc(O)c(O)c1', 'CC50 at 48 h', '> 100 µM'),
  ('CC1=C(C)[C@H]2[C@H](Cc3ccccc3)NC(=O)[C@]23OC(=O)/C=C/[C@@](C)(O)C[C@@H](C)C/C=C/[C@H]3[C@@H]1O', 'CC50 at 48 h', '> 100 µM'),
  ('C/C(=C\CC/C(C)=C/C[C@]1(O)C(=O)c2c(O)cc(C)c3c(O)c(C)c(O)c(c23)C1=O)CC/C=C(\CC[C@@H](O)C(C)(C)O)C(=O)O', 'CC50 at 48 h', '78.6 µM'),
  ('COC(=O)[C@@]1(Cc2ccc(O)c(C[C@@H](O)C(C)(C)O)c2)OC(=O)C(OC)=C1c1ccc(O)cc1', 'CC50 at 48 h', '94.3 µM'),
  ('COC1=C(c2ccc(O)cc2)[C@@H](Cc2ccc(O)cc2)OC1=O', 'CC50 at 48 h', '96.5 µM'),
  ('COC(=O)[C@]1(Cc2ccc(O)cc2)OC(=O)C(O)=C1c1ccc(O)cc1', 'CC50 at 48 h', '> 100 µM'),
  ('CC1=C(C)[C@H]2[C@H](Cc3ccccc3)NC(=O)[C@]23OC(=O)C/C=C(/C)C(=O)[C@@H](C)C/C=C/[C@H]3[C@@H]1O', 'CC50 at 48 h', '70.8 µM'),
  ('Cc1c(O)c(O)c2c(c1C=O)[C@@H]1O[C@H](O2)c2c(C)c(O)c(O)c(O)c2C1=O', 'CC50 at 48 h', '> 100 µM'),
  ('O=C1O[C@H](Cc2ccc(O)cc2)C(c2ccc(O)cc2)=C1O', 'CC50 at 48 h', '> 100 µM'),
  ('COC(=O)[C@@]1(Cc2ccc3c(c2)C[C@H](O)C(C)(C)O3)OC(=O)C(OC)=C1c1ccc(O)cc1', 'CC50 at 48 h', '93 µM'),
  ('C=C1[C@@H](C)[C@H]2[C@H](Cc3ccccc3)NC(=O)[C@]23OC(=O)/C=C/[C@H](C)[C@H](O)[C@@H](C)C/C=C/[C@H]3[C@@H]1O', 'CC50 at 48 h', '95.1 µM'),
  ('O=C1O/C(=C\c2ccc(O)c(O)c2)C(O)=C1c1ccc(O)cc1', 'CC50 at 48 h', '> 100 µM');
